Biological target: neurotensin receptor 1 (NTR1), human, prepared from CHO cells recombinantly expressing the human receptor (human) (UniProt P30989)
Sequence (P30989 whole entry): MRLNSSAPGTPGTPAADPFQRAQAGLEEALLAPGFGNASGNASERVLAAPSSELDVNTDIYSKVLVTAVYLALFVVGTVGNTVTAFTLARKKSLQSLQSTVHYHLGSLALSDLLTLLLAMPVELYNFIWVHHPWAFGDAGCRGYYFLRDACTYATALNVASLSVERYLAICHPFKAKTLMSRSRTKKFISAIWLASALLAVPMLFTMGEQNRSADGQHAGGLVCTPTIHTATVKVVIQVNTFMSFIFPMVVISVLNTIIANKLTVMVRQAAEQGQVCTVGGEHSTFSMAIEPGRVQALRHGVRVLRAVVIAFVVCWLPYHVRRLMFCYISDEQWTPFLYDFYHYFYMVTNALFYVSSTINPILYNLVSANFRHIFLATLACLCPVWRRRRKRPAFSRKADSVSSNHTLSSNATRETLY
Experiment: radioligand binding assay (Cerep 0109): displacement of 0.05 nM 125I-(Tyr3-neurotensin) from human NTR1 prepared from CHO cells
Numbered stars: 1 amine (or outer) side, 2 acyl side, 3 side chain; on linkers, the order of the positions; unused ones are H or OH. Square brackets hold non-standard residues; d marks the D form. * marks the point of attachment. DOTA = O=C(O)CN1CCN(CC(=O)O)CCN(CC(=O)*)CCN(CC(=O)O)CC1; Ttds = O=C(CCC(=O)[*:2])NCCCOCCOCCOCCCN[*:1]; Glutaryl = O=C(CCCC(=O)[*:2])[*:1]; Tle = CC(C)(C)[C@H](N)C(=O)O; 1206 = not defined here; GABA = NCCCC(=O)O
Items are presented alongside their recorded IC50.
The reply should contain only the number, in nM.

* {1206-Glutaryl}-[Ttds][Ttds][Ttds]K(DOTA)[Ttds][Ttds][Ttds][GABA][dR]RPY[Tle]L-OH (reading uncertain) [1206-Glutar-Ttds3-Lys(DOTA)-Ttds3-GABA-arg-Arg-Pro-Tyr-Tle-Leu-OH (18)] | 2.7
* {1206-Glutaryl}-[Ttds]K(DOTA)[Ttds][GABA]RRPY[Tle]L-OH (reading uncertain) [1206-Glutar-Ttds-Lys(DOTA)-Ttds-GABA-Arg-Arg-Pro-Tyr-Tle-Leu-OH (16)] | 0.14

Query binder follows.
May I ask what IC50 has been recorded for {1206-Glutaryl}-[Ttds]K(DOTA)[Ttds][GABA][dR]RPY[Tle]L-OH (reading uncertain) [1206-Glutar-Ttds-Lys(DOTA)-Ttds-GABA-arg-Arg-Pro-Tyr-Tle-Leu-OH (17)] ?
0.32
